Test system: Vero E6
Experiment: cell viability relative to DMSO; higher = less toxic
Settings: 72 h; 10 nM
Value kind: cell viability (%)
Numbers only, in %.

>  <Molecule>
COc1cc(N2CCC(N3CCN(C)CC3)CC2)ccc1Nc1ncc(Cl)c(Nc2ccccc2S(=O)(=O)C(C)C)n1 [NVP-TAE684]

>  <cell viability [%]>
97.2

$$$$
>  <Molecule>
C[N+](C)(C)CCCCCCCCCC[N+](C)(C)C [decamethonium]

>  <cell viability [%]>
98

$$$$
>  <Molecule>
Oc1noc2c1CCNC2 [gaboxadol]

>  <cell viability [%]>
95.8

$$$$

For every item below, please supply its cell viability.
1. C[C@H](Oc1ccc(S(C)(=O)=O)cc1C(=O)N1CCN(c2ncc(C(F)(F)F)cc2F)CC1)C(F)(F)F [bitopertin]
2. CCOc1nc2cccc(C(=O)O)c2n1Cc1ccc(-c2ccccc2-c2nnn[nH]2)cc1 [candesartan]
3. CCCCC(=O)O[C@]1(C(=O)CO)CC[C@H]2[C@@H]3CCC4=CC(=O)CC[C@]4(C)[C@H]3[C@@H](O)C[C@@]21C [hydrocortisone-valerate]
4. Cc1nc(C#Cc2ccnc(Cl)c2)c(C)n1-c1ccc(F)cc1 [basimglurant]
5. COC(=O)C1=C(C)NC(C)=C(C(=O)OCCCN2CCC(c3ccccc3)(c3ccccc3)CC2)[C@@H]1c1cccc([N+](=O)[O-])c1 [dexniguldipine]
6. C#C[C@]1(OC(C)=O)CC[C@H]2[C@@H]3CCC4=CC(=NO)CC[C@@H]4[C@H]3CC[C@@]21CC (mixture of isomers) [norgestimate]
7. COc1cc(/C=C/C(=O)O)ccc1O [ferulic-acid]
8. COc1ccc2cc(C(C)C(=O)Oc3ccc(C(N)=S)cc3)ccc2c1 (centres undefined) [ATB-346]

1: 95.6; 2: 97.6; 3: 105; 4: 101; 5: 99.7; 6: 94; 7: 107; 8: 94.3

----------
System: Caco-2
Assay: cell viability relative to DMSO; higher = less toxic
Conditions: 72 h; 10000 nM
Label 1 when cell viability is strictly below 90%; at or above that, label 0.

Below, 8 molecules whose answers are already recorded.
>  <Chemical string>
N=C(N)Nc1ccc(C(=O)Oc2ccc3cc(C(=N)N)ccc3c2)cc1

>  <Discrete label>
0

$$$$
>  <Chemical string>
COc1cc(/C=C/C(=O)O)ccc1O

>  <Discrete label>
0

$$$$
>  <Chemical string>
O=C(O)c1nc(=O)[nH]c(=O)[nH]1

>  <Discrete label>
0

$$$$
>  <Chemical string>
c1cc(-c2sc(-c3ccncc3)c(-c3ccncc3)c2-c2ccncc2)ccn1

>  <Discrete label>
1

$$$$
>  <Chemical string>
CN1c2cc3c(cc2N=C(c2ccc(C(=O)O)cc2)c2ccccc21)C(C)(C)CCC3(C)C

>  <Discrete label>
1

$$$$
>  <Chemical string>
CN1C/C=C/CCOc2cccc(c2)-c2ccnc(n2)Nc2cccc(c2)C1

>  <Discrete label>
1

$$$$
>  <Chemical string>
COC(=O)C[C@H]1CC(c2ccc(O)cc2)=NO1

>  <Discrete label>
0

$$$$
>  <Chemical string>
CC(=O)c1cnc2ccc(-c3cc(Cl)c(O)c(Cl)c3)nc2c1N[C@H]1CC[C@H](CN(C)C)CC1

>  <Discrete label>
1

$$$$

Consider the record given below.
Just wondering, is cell viability of O=C1[C@H]2CCCC[C@H]2C(=O)N1CCCCN1CCN(c2nsc3ccccc23)CC1 below 90%?
1

----------
Test system: Caco-2
Experiment: cell viability relative to DMSO; higher = less toxic
Details: 72 h; 1 nM
Value kind: cell viability (%)
Give bare numbers, in %.

// worked examples, cell viability included
>  <Molecule>
OCCCCO

>  <cell viability, %>
98.6

$$$$
>  <Molecule>
Oc1ccnc2cc(Cl)ccc12

>  <cell viability, %>
98.7

$$$$
>  <Molecule>
COc1cc2c(cc1OC)CN(CCc1ccc(NC(=O)c3cccc4c(=O)c5cccc(OC)c5[nH]c34)cc1)CC2

>  <cell viability, %>
97.3

$$$$

For each entry beneath this line, provide reported cell viability.
1. COc1cc(N)c(Cl)cc1C(=O)N[C@@H]1CCN(CCCOc2ccc(F)cc2)C[C@@H]1OC (racemic) [cisapride]
2. COc1cc(C(=O)NC2CCCNC2)cc(OC)c1OC (stereo not drawn) [troxipide]

1. 99.8
2. 99

Quick request: cell viability for each listed item, please.
1. NC(=O)N/N=C/c1ccc(Oc2ccc(F)cc2)cc1
2. O=C(NCCCNc1nc(Nc2cccc(NC(=O)N3CCCC3)c2)ncc1I)c1cccs1
3. CN(C)C[C@H](O)Cn1c2ccc(Br)cc2c2cc(Br)ccc21 (racemic)
4. CC(C)C(=O)c1c(C(C)C)nn2ccccc12
5. O=C(O)Cc1ccc(CCNS(=O)(=O)c2ccc(Cl)cc2)cc1
6. CC(=O)O[C@]1(C(C)=O)CC[C@H]2[C@@H]3C[C@H](C)C4=CC(=O)CC[C@]4(C)[C@H]3CC[C@@]21C [medroxyprogesterone-acetate]
7. O=C1NC(=O)c2c1c1c3ccccc3n3c1c1c2c2ccccc2n1C1CCC3O1
8. Cc1cc(Nc2cc(C)c(C#N)c(N[C@@H](C)CCCC(C)(C)O)n2)n[nH]1

1. 99.6
2. 98.2
3. 103
4. 91.2
5. 104
6. 92.6
7. 101
8. 103

Okay, here is my list. What is cell viability for each of these?
1. Cc1c(NC(=O)c2cc3c(s2)CCCC3)cccc1-c1cn(C)c(=O)c(Nc2ccc(C3C(=O)N(C)CCN3C)cc2)n1 (stereo in doubt)
2. Cc1c(C(=O)Nc2ccc(N3CCC(N4CCOCC4)CC3)c(C#N)c2)cnn1-c1ccc(Cl)cc1
3. NC(=O)OCC(O)COc1ccc(Cl)cc1 (stereo not drawn) [chlorphensin-carbamate]
4. O=C1NCCN1CCN1CCC(c2cn(-c3ccc(F)cc3)c3ccc(Cl)cc23)CC1
5. NC(=S)N/N=C/c1ccncc1

104
104
100
97.1
97.2

----------
Tested on: Caco-2
Assay: cell viability relative to DMSO; higher = less toxic
Settings: 72 h; 100 nM
For each of the compounds below, state its cell viability.
One number for each entry, in %.

Examples with their reported cell viability follow.
>  <Compound>
CCCC(=O)C1CCN(c2ncnc3c2CN(C(=O)c2ccc(-c4ccccc4)cc2)CC3)CC1 [PK-THPP]

>  <Value unit>
%

>  <Measured number>
100

$$$$
>  <Compound>
CC(=O)Oc1cc2c(s1)CCN(C(C(=O)C1CC1)c1ccccc1F)C2 (stereo not drawn) [prasugrel]

>  <Value unit>
%

>  <Measured number>
93

$$$$
>  <Compound>
CN(C)C[C@H](O)Cn1c2ccc(Br)cc2c2cc(Br)ccc21 (racemic) [wiskostatin]

>  <Value unit>
%

>  <Measured number>
100

$$$$
>  <Compound>
CN(C)Cc1ccc(-c2nc3cccc4c3n2CCNC4=O)cc1

>  <Value unit>
%

>  <Measured number>
104

$$$$
>  <Compound>
CC(C(=O)O)c1ccc2c(c1)Cc1ccccc1-2 (stereo not drawn) [cicloprofen]

>  <Value unit>
%

>  <Measured number>
99.9

$$$$

Batch request: cell viability for each of the following compounds.
1. CCCCC(=O)O[C@]1(C(=O)CO)CC[C@H]2[C@@H]3CCC4=CC(=O)CC[C@]4(C)[C@H]3[C@@H](O)C[C@@]21C [hydrocortisone-valerate]
2. Fc1ccc(CNc2ncnc3ccc(F)cc23)cc1 [spautin-1]
3. C[C@H]1C[C@@H]2[C@H]([C@@H](O)C[C@@]3(C)[C@H]2CC[C@]3(O)C(=O)CO)[C@@]2(C)C=CC(=O)C=C12 [methylprednisolone]

[88, 96, 90.3]

----------
Tested on: Calu-3
Test: cell viability relative to DMSO; higher = less toxic
Conditions: 72 h; 10000 nM
For each record, write down the corresponding cell viability.
Numbers only, in %.

Here are 5 compounds together with their reported answers.
>  <Compound>
CCN1CCN(C(=O)N[C@@H](C(=O)N[C@@H]2C(=O)N3C(C(=O)O)=C(CSc4nnnn4C)CS[C@H]23)c2ccc(O)cc2)C(=O)C1=O

>  <cell viability (%)>
102

$$$$
>  <Compound>
CCO[C@H]1O[C@@H]2O[C@@]3(C)CC[C@H]4[C@H](C)CC[C@@H]([C@H]1C)[C@@]24OO3

>  <cell viability (%)>
104

$$$$
>  <Compound>
Oc1cc(O)c2c(c1)O[C@H](c1ccc(O)c(O)c1)[C@@H](O)C2

>  <cell viability (%)>
101

$$$$
>  <Compound>
C=Cc1c(C)c2cc3nc(c(CC(=O)O)c4[n-]c(cc5nc(cc1[n-]2)C(C)=C5CC)c(C)c4C(=O)O)[C@@H](CCC(=O)O)[C@@H]3C.[Cu+2]

>  <cell viability (%)>
75.4

$$$$
>  <Compound>
C[C@]12CCC(=O)C[C@@H]1CC[C@@H]1[C@@H]2CC[C@]2(C)[C@@H](O)CC[C@@H]12 [Dihydrotestosterone]

>  <cell viability (%)>
94.3

$$$$

For every item in the list below, what is its measured cell viability?
1. C=C1CC[C@H](O)C/C1=C/C=C1\CCC[C@]2(C)[C@@H]([C@H](C)/C=C/[C@H](C)C(C)C)CC[C@@H]12
2. Cc1nnc(C(=O)NC(C)(C)c2nc(C(=O)NCc3ccc(F)cc3)c(O)c(=O)n2C)o1
3. C[C@@H]1CC[C@@]2(OC1)O[C@H]1C[C@H]3[C@@H]4CC=C5C[C@@H](O)CC[C@]5(C)[C@H]4CC[C@]3(C)[C@H]1[C@@H]2C
4. COc1c(-c2ccc3cc(NS(C)(=O)=O)ccc3c2)cc(-n2ccc(=O)[nH]c2=O)cc1C(C)(C)C
5. CC(C(=O)O)c1ccc2c(c1)Cc1ccccc1-2 (stereo not given)

1. 104
2. 104
3. 95.4
4. 104
5. 90.5

Please go through the list and note cell viability for each compound.
1. O=C(c1cc(C2CC2)on1)N(C1CCCCC1)C1CCCCC1
2. O=C(Nc1ccc([N+](=O)[O-])cc1Cl)c1cc(Cl)ccc1O [niclosamide]

1: 99; 2: 86.2
